Measured CC50 at 72 h, listed per entry for reference.
- ASSAY PROTOCOL: in vitro
- PARTICULARS: rhesus monkey
Quick note: give the figure in µM, leave out the unit.

Field: example entries. Status: answers known.
>  <COMPOUND>
C/C(=N\N=c1/sc(/N=N/c2ccccc2)c(C)n1N)c1cccs1

>  <CC50 at 72 h / µM>
183

$$$$
>  <COMPOUND>
C/C(=N\N=c1/scc(-c2ccc(C)cc2)n1N)c1cccs1 [11b]

>  <CC50 at 72 h / µM>
231

$$$$
>  <COMPOUND>
C/C(=N\N=c1/sc(/N=N/c2ccc(C)cc2)c(C)n1N)c1cccs1

>  <CC50 at 72 h / µM>
176

$$$$
>  <COMPOUND>
CCOC(=O)c1s/c(=N\N=C(/C)c2cccs2)n(N)c1C [13b]

>  <CC50 at 72 h / µM>
135

$$$$
>  <COMPOUND>
CC(=NN=C1SC(=NNc2ccc(C)cc2)C(=O)N1N)c1cccs1

>  <CC50 at 72 h / µM>
149

$$$$

CC(=O)c1sc(=NN=C(C)c2cccs2)n(N)c1C [13a] yielded CC50 at 72 h of 163
